# System: CCRIS mutagenicity, Ames/micronucleus/aberration tests
# method.description: CCRIS mutagenicity studies
# measurement.conditions: Test System: AMES SALMONELLA TYPHIMURIUM; Strain/Indicator: TA1535; Metabolic Activation: RAT, LIVER, S-9, AROCLOR 1254; Method: STANDARD PLATE
Calls of active or inactive are those of the source. No rule for the calls is given here.
Thanks in advance; please answer with one of these: active, inactive

Query :: Test call, this molecule: C[C@]12CC[C@H](OC(=O)COc3ccc(N(CCCl)CCCl)cc3)C[C@@H]1CC[C@@H]1[C@@H]2CC[C@]2(C)NC(=O)CC[C@@H]12
Result :: active

Query :: # fetch the recorded call for CC(O)CN(C)c1ccc(NN)nn1 (stereo unspecified) here
Result :: inactive

Query :: State the result this test recorded for O=C(O)/C=C\C(=O)O .
Result :: inactive

Query :: State the result this test recorded for Cc1cc(C(O)c2ncc([N+](=O)[O-])n2C)c(O)c(C(C)(C)C)c1 (stereo unspecified) .
Result :: inactive

Query :: Assay outcome for N#CC1=C(C#N)SCCS1 : what was it?
Result :: inactive

Query :: Returns: the outcome recorded for O=C(O)/C=C(/CC(=O)O)C(=O)O in this assay.
Result :: inactive

###

# System: CCRIS mutagenicity, Ames/micronucleus/aberration tests
# method.description: CCRIS mutagenicity studies
# measurement.conditions: Test System: AMES SALMONELLA TYPHIMURIUM; Strain/Indicator: TA1535; Metabolic Activation: HAMSTER, LIVER, S-9, AROCLOR 1254 (10%); Method: PREINCUBATION
Activity calls are given as the source filed them. No rule for the calls is given here.
Entry note: the call must match one of Y for active, N for inactive

Query :: Record lookup: outcome of this test for O=[N+]([O-])c1cccc(O)c1 ?
Result :: N

Query :: I would be grateful if you could indicate the recorded call for O[C@H]([C@H](O)[C@@H](O)CBr)[C@H](O)CBr .
Result :: Y

Query :: Short answer needed: outcome of this test for Cc1cccc(N)c1C ?
Result :: N

Query :: Write down the call the test reported for this molecule. Item: CC(O)CCl (stereo not given)
Result :: Y

Query :: Check the results log: what was the call for Oc1cccc(Nc2ccccc2)c1 ?
Result :: N

Query :: // param item: CCCCCCCCCCCC(=O)O ; yields the recorded call
Result :: N

Query :: Assay outcome for CC(Cl)Cl : what was it?
Result :: N

Query :: Short answer needed: outcome of this test for Nc1cccc(Cl)c1 ?
Result :: N

Query :: Tell me the assay call for OC[P+](CO)(CO)CO please.
Result :: N

Query :: Any idea what this test logged for Cc1cc(O)c(C(C)(C)C)cc1Sc1cc(C(C)(C)C)c(O)cc1C ?
Result :: N

Query :: Outcome logged for Cc1cc(-c2ccc(N/N=C3\C(=O)c4c(O)cc(S(=O)(=O)O)cc4C=C3S(=O)(=O)O)c(C)c2)ccc1N/N=C1\C(=O)c2c(O)cc(S(=O)(=O)O)cc2C=C1S(=O)(=O)O in this assay:
Result :: N

Query :: Status in this test for C=CC(C)C#N (stereo not given) ?
Result :: N

Query :: Which outcome did this test record for the molecule CCCCCCCCOC(=O)c1ccccc1C(=O)OCCCCCCCC ?
Result :: N

Query :: Please share the test call associated with O=C(O)c1ccc2c(c1)C(=O)OC2=O .
Result :: N

Query :: Per the assay record, what outcome was assigned to OCC(CO)(CBr)CBr ?
Result :: N

Query :: State the result this test recorded for Clc1nc2ccccc2nc1Cl .
Result :: N

Query :: Just curious, what result did O=C1C=C(O)c2ccccc2C1=O get here?
Result :: N

Query :: Per the assay record, what outcome was assigned to Oc1ccc2ccccc2c1N=Nc1ccccc1 ?
Result :: N

Query :: Tell me the assay call for O.O.O.O.O.O.O=[N+]([O-])[O-].O=[N+]([O-])[O-].O=[N+]([O-])[O-].[La+3] please.
Result :: N

Query :: Field: outcome | Entry: Cc1cccc(C#N)c1
Result :: N

###

# Test system: CCRIS mutagenicity, Ames/micronucleus/aberration tests
# method.description: CCRIS mutagenicity studies
# measurement.conditions: Test System: AMES SALMONELLA TYPHIMURIUM; Strain/Indicator: TA98; Metabolic Activation: NONE; Method: GAS EXPOSURE
Active and inactive are the calls of the source. How the calls were made is not given here.
The reply should be one of these categories: active, inactive

Query :: I would be grateful if you could indicate the recorded call for COC=O .
Result :: inactive

Query :: What call does the record list for B#B ?
Result :: active

Query :: Check the results log: what was the call for CN ?
Result :: inactive

Query :: So what was the verdict on CI in this test?
Result :: inactive

###

# Test system: CCRIS mutagenicity, Ames/micronucleus/aberration tests
# method.description: CCRIS mutagenicity studies
# measurement.conditions: Test System: AMES SALMONELLA TYPHIMURIUM; Strain/Indicator: TA97; Metabolic Activation: RAT, LIVER, S-9, AROCLOR 1254; Method: PREINCUBATION
# Source text: The CCRIS database contains chemical records with carcinogenicity, mutagenicity, tumor promotion, and tumor inhibition test results. It was developed by the National Cancer Institute (NCI). Data are derived from studies cited in primary journals, current awareness tools, NCI reports, and other sources. Test results have been reviewed by experts in carcinogenesis and mutagenesis. CCRIS provides historical information from the years 1985 - 2011. It is no longer updated. […]
Calls of active or inactive are those of the source. No rule for the calls is given here.
Respond using exactly one of the listed classes: active, inactive

Query :: Please let me know the test result on file for Oc1ccccc1 .
Result :: inactive

Query :: Per the assay record, what outcome was assigned to O=S(=O)(O)OOS(=O)(=O)O ?
Result :: inactive

Query :: Identify the outcome logged in this assay for the compound shown: O=c1ccn([C@@H]2O[C@H](COP(=O)(O)O)[C@@H](O)[C@H]2O)c(=O)[nH]1
Result :: inactive

Query :: Dear colleague, could you share the recorded outcome for CCCCCC when you have a moment?
Result :: inactive

Query :: Field: outcome | Entry: OCc1ccccc1
Result :: inactive

Query :: Identify the outcome logged in this assay for the compound shown: O=c1[nH]c(=O)n([C@H]2C[C@H](O)[C@@H](CO)O2)cc1/C=C/Br
Result :: inactive

Query :: Could you please tell me the result logged for O=P(O)(O)OC(CO)CO in this assay?
Result :: inactive

Query :: Given CCCC(=O)O , state the outcome it received in this test.
Result :: inactive

Query :: // param item: Oc1ccc(-c2ccc(O)cc2)cc1 ; yields the recorded call
Result :: inactive

Query :: Assay outcome for O=Cc1ccccc1 : what was it?
Result :: inactive

Query :: For this compound, state the assay outcome: CCOC(=O)CC(C)=O
Result :: inactive

Query :: Look up the recorded call for Cc1occc(=O)c1O in this test.
Result :: inactive

Query :: What did this assay record as the result for CCCC(=O)OC1CCCCC1 ?
Result :: inactive

Query :: Test call for this compound, please: Nc1ccc(NCCO)c([N+](=O)[O-])c1
Result :: active

Query :: Please state the recorded outcome for this compound: CCN=C=S
Result :: inactive

###

# Tested on: CCRIS mutagenicity, Ames/micronucleus/aberration tests
# method.description: CCRIS mutagenicity studies
# measurement.conditions: Test System: AMES SALMONELLA TYPHIMURIUM; Strain/Indicator: TA1537; Metabolic Activation: RAT, LIVER, S-9, AROCLOR 1254 (10%); Method: PREINCUBATION
Active and inactive are the calls of the source. No rule for the calls is given here.
Classes to choose from: yes for active, no for inactive

Query :: Query: recorded result category for C=C(C#N)C(=O)OC in this test
Result :: no

Query :: Given CNCCS(=O)(=O)O , state the outcome it received in this test.
Result :: no

Query :: # fetch the recorded call for Oc1c(Br)c(Br)c(Br)c(Br)c1Br here
Result :: no

Query :: State the result this test recorded for CC(C)[N+](C)(CCOC(=O)C1c2ccccc2Oc2ccccc21)C(C)C .
Result :: no

Query :: Give the logged outcome of this assay for the following compound: Clc1nc2ccccc2nc1Cl
Result :: no

Query :: Please state the recorded outcome for this compound: CC(C)COC(=O)c1ccccc1N
Result :: no

Query :: For CC(C)CCC(C)Nc1ccc(NC(C)CCC(C)C)cc1 (centres undefined) , what call appears in the results of this test?
Result :: no

Query :: Entry N[C@H](Cc1ccccc1)C(=O)O : call = ?
Result :: no

Query :: Hello, I am checking results. What call was entered for CCCC(C)(COC(N)=O)COC(=O)NC(C)C (centres undefined) ?
Result :: no

Query :: Which outcome was assigned to ClC(Br)Br in this test?
Result :: no

Query :: Called result for O=C1C=C(O)c2ccccc2C1=O
Result :: yes

Query :: Field: outcome | Entry: CON
Result :: no

Query :: Recorded test call requested for COP(=S)(OC)SCn1nnc2ccccc2c1=O
Result :: no

Query :: Outcome? Nc1cccc(Cl)c1
Result :: no

Query :: Call for entry CCCCCCCCCCCCS :
Result :: no

Query :: Each compound tested received a call. Report the one for CC[C@H]1CN2CCc3cc(OC)c(OC)cc3[C@@H]2C[C@@H]1C[C@H]1NCCc2cc(OC)c(OC)cc21 .
Result :: no

Query :: Can you look up the reported call for COC(=O)c1ccccc1C(=O)OC for me?
Result :: no

Query :: Called result for F
Result :: no

Query :: Each compound tested received a call. Report the one for O[C@H]([C@H](O)[C@@H](O)CBr)[C@H](O)CBr .
Result :: no

Query :: For B#B , which call appears in the assay record?
Result :: no

Query :: Could you please tell me the result logged for O=[N+]([O-])c1ccc(NCCO)c(OCCO)c1 in this assay?
Result :: yes

Query :: Called result for O=C1OC(=O)c2c(Cl)c(Cl)c(Cl)c(Cl)c21
Result :: no

Query :: Which outcome did this test record for the compound Nc1ccc(Sc2ccc(N)cc2)cc1 ?
Result :: no

Query :: Recorded test outcome, item O=[N+]([O-])CCO
Result :: no

Query :: Fill in: this test's call for CCN is ___
Result :: no

Query :: Assay result, entry CC(C)CNCC(C)C — outcome?
Result :: no

Query :: For O.[Al+3].[Al+3].[Na+].[Na+].[O-2].[O-2].[O-2].[O-2].[O-2].[O-2].[Si+4] , what call appears in the results of this test?
Result :: no

Query :: Test call for this compound, please: Cc1cc(-c2ccc(N/N=C3\C(=O)c4c(O)cc(S(=O)(=O)O)cc4C=C3S(=O)(=O)O)c(C)c2)ccc1N/N=C1\C(=O)c2c(O)cc(S(=O)(=O)O)cc2C=C1S(=O)(=O)O
Result :: no

Query :: Please state the recorded outcome for this compound: BrCC(Br)C1CCC(Br)C(Br)C1 (centres undefined)
Result :: no

Taken from PubChem BioAssay AID1259407.
